# ASSAYED_TARGET: human TLR7 (hTLR7) (Homo sapiens, UniProt Q9NYK1)
# Sequence (Q9NYK1 27-1049): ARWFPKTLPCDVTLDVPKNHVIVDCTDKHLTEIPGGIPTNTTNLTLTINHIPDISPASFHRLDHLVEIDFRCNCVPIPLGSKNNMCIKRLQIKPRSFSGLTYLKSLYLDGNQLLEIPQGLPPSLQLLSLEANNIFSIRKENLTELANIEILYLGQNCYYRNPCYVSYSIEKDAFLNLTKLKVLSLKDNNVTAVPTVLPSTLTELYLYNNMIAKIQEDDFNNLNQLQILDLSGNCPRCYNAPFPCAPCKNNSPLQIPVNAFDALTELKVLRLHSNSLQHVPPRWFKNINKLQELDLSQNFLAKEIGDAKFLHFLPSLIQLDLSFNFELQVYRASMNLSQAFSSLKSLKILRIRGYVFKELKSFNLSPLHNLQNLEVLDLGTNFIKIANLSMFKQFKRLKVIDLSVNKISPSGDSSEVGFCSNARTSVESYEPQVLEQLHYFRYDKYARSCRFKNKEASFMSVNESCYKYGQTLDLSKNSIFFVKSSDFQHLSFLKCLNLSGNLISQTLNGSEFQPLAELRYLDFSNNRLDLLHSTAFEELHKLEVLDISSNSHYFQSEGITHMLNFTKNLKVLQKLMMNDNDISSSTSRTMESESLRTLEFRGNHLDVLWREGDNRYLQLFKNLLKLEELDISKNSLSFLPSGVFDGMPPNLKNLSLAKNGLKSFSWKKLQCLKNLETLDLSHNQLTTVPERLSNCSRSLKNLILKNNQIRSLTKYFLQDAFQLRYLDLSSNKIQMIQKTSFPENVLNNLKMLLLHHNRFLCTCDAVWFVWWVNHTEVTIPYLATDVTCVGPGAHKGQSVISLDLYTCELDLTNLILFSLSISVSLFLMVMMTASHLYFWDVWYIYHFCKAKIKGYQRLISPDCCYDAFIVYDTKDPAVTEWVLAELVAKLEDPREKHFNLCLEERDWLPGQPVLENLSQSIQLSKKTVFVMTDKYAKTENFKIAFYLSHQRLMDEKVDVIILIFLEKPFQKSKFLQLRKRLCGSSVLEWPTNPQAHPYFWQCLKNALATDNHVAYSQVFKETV
# EXPERIMENTAL_DETAILS: Human TLR7 agonist activity assay (HEK-Blue TLR7 SEAP reporter)
# RUN_PARAMETERS: HEK-Blue TLR7 cells, 18 h incubation, Quanti-Blue, OD 620 nm, some values average of multiple measurements
Label 1 when EC50 < 1000 nM; otherwise -1.

{"COMPOUND": "CCCCN(CCO)c1nc(N)nc2cn(Cc3cc(OC)c(C4CCN(C5CCOCC5)CC4)cc3OC)nc12 [Compound 108]", "GROUP": -1}
{"COMPOUND": "CCCCN(CCO)c1nc(N)nc2cn(Cc3c(F)cc(CN[C@H]4C[C@@H](OC)C4)cc3F)nc12 [Compound 118]", "GROUP": -1}
{"COMPOUND": "CCCCN(CCO)c1nc(N)nc2cn(Cc3c(F)cc(C4=CCNC4)cc3OC)nc12 [Compound 147]", "GROUP": -1}
{"COMPOUND": "CCCCN(CCO)c1nc(N)nc2cn(Cc3ccc(CN4CC(OC)C4)cc3OC)nc12 [Compound 5]", "GROUP": 1}
{"COMPOUND": "CCCCN(CCO)c1nc(N)nc2cn(Cc3ccc(CN[C@H]4C[C@H](OC)C4)c4c3OCCC4)nc12 [Compound 138]", "GROUP": -1}
{"COMPOUND": "CCCCN(CCO)c1nc(N)nc2cn(Cc3ccc(CN[C@@H]4CCOC4)c4c3OCCC4)nc12 [Compound 135]", "GROUP": -1}
{"COMPOUND": "CCCCN(c1nc(N)nc2cn(Cc3ccc(CN[C@@H]4CCOC4)cc3OC)nc12)C(C)CO (some centres unmarked) [Compound 86]", "GROUP": 1}

State whether 1000 nM exceeds EC50 recorded for CCCCN(CCO)c1nc(N)nc2cn(Cc3ccc(CN4CC(O)C4)cc3OC)nc12 [Compound 20] . -1

Reference source: patent US20250282776A1
